Target: PEG-3 (UniProt Q6IN02)
Experiment: GAPDH versus PEG-3 reporter suppression – cell-based, luminescence, counter-screen for PEG-3 promoter inhibitor project, SAR follow-up (AID 651551)
Details: HeLa PEG-Prom / GAPDH luciferase reporter, 6 or 24 h, run 2, 24 h; at 99 µM (top of the series)
Property: inhibition % (higher = more inhibition); scope: individual compounds

Answered cases to consult:
{"Compound structure": "Cc1cc(NC(=O)c2ccccc2)n(-c2nc3ccccc3[nH]2)n1", "inhibition % (higher = more inhibition)": "-13.6%"}
{"Compound structure": "COc1ccc(-n2nc(C(=O)NCC(=O)Nc3ccc(OC)c(OC)c3)c3ccccc3c2=O)cc1", "inhibition % (higher = more inhibition)": "35.2%"}
{"Compound structure": "CCCn1nc(C(=O)Nc2nc(-c3ccncc3)cs2)c2ccccc2c1=O", "inhibition % (higher = more inhibition)": "40.8%"}

Quick one: inhibition % (higher = more inhibition) for Cc1nc(NC(=O)c2ccccc2)sc1-c1csc(Nc2cccc(Cl)c2C)n1 ? -15.2%

Quick one: inhibition % (higher = more inhibition) for CCn1nc(C(=O)Nc2nc(-c3ccccn3)cs2)c2ccccc2c1=O ? 53.3%

Quick one: inhibition % (higher = more inhibition) for CCCn1nc(C(=O)Nc2nc3ccccc3s2)c2ccccc2c1=O ? 18.4%

Quick one: inhibition % (higher = more inhibition) for Cc1nc(NC(=O)c2ccccc2)sc1-c1csc(Nc2ccccc2)n1 ? 63.3%

====

Property: inhibition % (higher = more inhibition); scope: individual compounds
Molecular target: PEG-3 (UniProt Q6IN02)
Test: GAPDH versus PEG-3 reporter suppression – cell-based, luminescence, counter-screen for PEG-3 promoter inhibitor project, SAR follow-up (AID 651551)
Settings: HeLa PEG-Prom / GAPDH luciferase reporter, 6 or 24 h, run 2, 24 h; at 99 µM (top of the series)

Answered cases to consult:
{"Compound structure": "CCn1cc(C(=O)NCc2ccco2)c(=O)c2cc(S(=O)(=O)N3CCCC3)ccc21", "Meas value": "24%"}
{"Compound structure": "CCCn1nc(C(=O)Nc2nc(-c3ccccn3)cs2)c2ccccc2c1=O", "Meas value": "44.6%"}
{"Compound structure": "Cc1cc(NC(=O)c2ccccc2)n(-c2nc3ccccc3n2C)n1", "Meas value": "12.8%"}

Quick one: inhibition % (higher = more inhibition) for Cc1cc(NC(=O)c2ccccc2C(F)(F)F)n(-c2nc3ccccc3[nH]2)n1 ? 91.9%
